# measuredOn: T1, INCENP N-terminal domain (1-58), His- and Avi-tagged, biotinylated (UniProt Q9NQS7 1-58, biotinylated (Avi-tag, co-expressed E. coli biotin ligase BirA))
# T1 construct: range 1-58; Expressed in E. coli BL21(DE3); also called INC-N; INCENP N-terminal domain (AA 1-58); not shown: His-tag and Avi-tag
# T1 sequence (looked up): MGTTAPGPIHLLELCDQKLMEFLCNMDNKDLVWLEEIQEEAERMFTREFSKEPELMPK
# assayName: SPR, target immobilised on NTA chip via His-tag, two-fold Fab dilutions from 100 nM, 1:1 Langmuir fit

# binder, koff, s⁻¹
records = [
    ("INC-N-04 (Fab, V domains shown, also called INC-N-04 Fab) VH: EVQLVESGGGLVQPGGSLRLSCAASGFNFYSYSIHWVRQAPGKGLEWVASIYSYSGYTYYADSVKGRFTISADTSKNTAYLQMNSLRAEDTAVYYCARYPLYFQYRKYYGIDYWGQGTLVTVSS VL: DIQMTQSPSSLSASVGDRVTITCRASQSVSSAVAWYQQKPGKAPKLLIYSASSLYSGVPSRFSGSRSGTDFTLTISSLQPEDFATYYCQQGWYYPITFGQGTKVEIKR", 0.011),
    ("INC-N-11 (Fab, V domains shown, also called INC-N-11 Fab) VH: EVQLVESGGGLVQPGGSLRLSCAASGFNVSYYSIHWVRQAPGKGLEWVASIYPSSGSTYYADSVKGRFTISADTSKNTAYLQMNSLRAEDTAVYYCARMYPSWMLYPYYMFAGMDYWGQGTLVTVSS VL: DIQMTQSPSSLSASVGDRVTITCRASQSVSSAVAWYQQKPGKAPKLLIYSASSLYSGVPSRFSGSRSGTDFTLTISSLQPEDFATYYCQQRWVYPITFGQGTKVEIKR", 0.0031),
    ("INC-N-13 (Fab, V domains shown, also called INC-N-13 Fab) VH: EVQLVESGGGLVQPGGSLRLSCAASGFNVSYYSIHWVRQAPGKGLEWVASIYPYSGSTYYADSVKGRFTISADTSKNTAYLQMNSLRAEDTAVYYCARYPYYVYWYYWWYYALDYWGQGTLVTVSS VL: DIQMTQSPSSLSASVGDRVTITCRASQSVSSAVAWYQQKPGKAPKLLIYSASSLYSGVPSRFSGSRSGTDFTLTISSLQPEDFATYYCQQSWSYPITFGQGTKVEIKR", 0.0029),
]

Taken from patent US20240408138A1.
